Value source: ChEMBL document CHEMBL3301361

# assay remarks: in vitro
# condition details: Beagle, dog, plasma
experimental readout: fraction unbound at 5 h
Numbers only.

// batch mode: one fraction unbound at 5 h value per listed entry
1. O=P(c1ccccc1)(c1ccccc1)N(Cc1ccccn1)c1cccnc1
2. CCN(CC)CCNC(=O)c1ccc(NS(C)(=O)=O)cc1 [SEMATILIDE]
3. CC(C)(C)NC(=O)NCCN1CCC(CNC(=O)c2cc(Cl)cc(Cl)c2)CC1
4. C[C@H]1CN(c2cc(N(CCO)Cc3cccc4ccccc34)[nH]c(=O)n2)CCO1

1. 0.208
2. 0.899
3. 0.11
4. 0.299

* * *

# assay remarks: in vitro
# condition details: human, plasma, PPB
experimental readout: fraction unbound at 5 h

[
  {
    "compound": "Cc1c(Sc2ccc(Cl)cc2)c2cc(S(C)(=O)=O)ccc2n1CC(=O)O",
    "result": 0.0127
  },
  {
    "compound": "CS(=O)(=O)c1ccc(-c2nnc(/C=C/c3nnc(-c4ccc(C#N)cc4)o3)n2-c2ccccc2Cl)nc1",
    "result": 0.0633
  }
]

// batch mode: one fraction unbound at 5 h value per listed entry
1. COc1ccccc1CCNCc1ccc(CCNC[C@H](O)c2ccc(O)c3[nH]c(=O)sc23)cc1
2. Cc1nc(C)c(-c2ccc([C@H]3CC[C@H](CC(=O)NC(C)(C)C(=O)O)CC3)cc2)nc1C(N)=O
3. Cc1ccc2c(c1)c(Sc1ccc(S(C)(=O)=O)cc1)c(C)n2CC(=O)O
4. CS(=O)(=O)N1CCC(NC(=O)NC23CC4CC(CC(C4)C2)C3)CC1
5. CCN(CC)CCNc1ncnc2c1sc1nc(N3CCOCC3)c3c(c12)CCCC3
6. CNc1nc2ccccc2n1Cc1sc2c(c1C(=O)N1CC[C@@H](O)C1)c(=O)n(C)c(=O)n2CC(C)C

[0.0447, 0.0784, 0.0081, 0.289, 0.0784, 0.319]

Identify measured fraction unbound at 5 h associated with COc1cc(OC)c(S(=O)(=O)N2c3ccccc3CCC2C)cc1NC(=O)CCc1nn[nH]n1 (centres undefined)
0.0647

* * *

# assay remarks: in vitro
# condition details: hepatocytes
experimental readout: hepatocyte CLint (µL/min/1e6 cells)
One number for each entry, in µL/min/1e6 cells.

Illustrative cases are given below, each with its answer.
[
  {
    "compound": "O=C1Nc2ccc(Cl)cc2C(c2ccccc2Cl)=NC1O (configuration not stated) [LORAZEPAM]",
    "reading unit": "µL/min/1e6 cells",
    "hepatocyte CLint": 17.4
  },
  {
    "compound": "O=c1[nH]c2c(O)ccc([C@@H](O)CNCCc3cccc(CNCCc4ccccc4Cl)c3)c2s1",
    "reading unit": "µL/min/1e6 cells",
    "hepatocyte CLint": 42
  },
  {
    "compound": "CCOC(=O)c1c(-c2ccccc2)nc2cc(C)ccn12",
    "reading unit": "µL/min/1e6 cells",
    "hepatocyte CLint": 148
  },
  {
    "compound": "Cc1cccc2c(CCNCc3cccc(CCNC[C@H](O)c4ccc(O)c5[nH]c(=O)sc45)c3)c[nH]c12",
    "reading unit": "µL/min/1e6 cells",
    "hepatocyte CLint": 24
  },
  {
    "compound": "CCOc1ccc2oc(C(=O)NC(CCSC)c3nc4cnccc4[nH]3)c(C)c2c1 (configuration not stated)",
    "reading unit": "µL/min/1e6 cells",
    "hepatocyte CLint": 21
  }
]

// batch mode: one hepatocyte CLint value per listed entry
1. CC1Cc2ccccc2N1NC(=O)c1ccc(Cl)c(S(N)(=O)=O)c1 (configuration not stated) [INDAPAMIDE]
2. O=c1[nH]c2c(O)ccc([C@@H](O)CNCCCSCCOCCc3cccc4ccccc34)c2s1
3. CCCCC[C@H](c1ccc(C(=O)O)c(Oc2cccc(Br)c2)c1)N1CCC[C@H](n2cc(C)c(=O)[nH]c2=O)C1

1. 13.2
2. 85
3. 30.2

// batch mode: one hepatocyte CLint value per listed entry
1. CCN1CCN(c2ccc(Nc3cc(N(C)C(=O)Nc4c(Cl)c(OC)cc(OC)c4Cl)ncn3)cc2)CC1 [INFIGRATINIB]
2. CC(C)NCC(O)COc1ccc(CCOCC2CC2)cc1 (configuration not stated) [BETAXOLOL]
3. CC(C(=O)O)c1ccc(C(=O)c2cccs2)cc1 (configuration not stated) [SUPROFEN]
4. CC(C)NCC(O)COc1ccc(COCCOC(C)C)cc1 (configuration not stated) [BISOPROLOL]

1. 87.1
2. 12
3. 16
4. 25.1

* * *

# assay remarks: physchem
# condition details: octan-1-ol/water, pH 7.4, LogD7.4
Given measured logD, output true if it is greater than or equal to 3 and false if not.

# example entries with known answers
[
  {
    "compound": "Nc1nc2cc3c(cc2s1)CCN(Cc1cccc(F)c1)CC3",
    "assigned label": "true"
  },
  {
    "compound": "CCCc1c(OCc2ccc(C(=O)O)cc2)ccc(C(C)=O)c1O",
    "assigned label": "false"
  },
  {
    "compound": "Nc1[nH]nc2cccc(Cl)c12",
    "assigned label": "false"
  },
  {
    "compound": "CC(C)Cn1c(=O)n(C)c(=O)c2c(SCCCO)c(Cc3ccccc3C(F)(F)F)sc21",
    "assigned label": "true"
  },
  {
    "compound": "CN[C@@H](C)C(=O)N[C@H](C(=O)N[C@H]1CCCN(CCc2ccc(F)cc2)C1)C1CCCCC1",
    "assigned label": "false"
  },
  {
    "compound": "COCCCNS(=O)(=O)c1ccc(Nc2nccc(-c3cnc4ccccn34)n2)cc1",
    "assigned label": "true"
  }
]

Is logD for CCC(CC)NC(=O)c1nnn(-c2ccccc2)c1NS(=O)(=O)c1ccc(C)cc1 at or above 3?
false

Is logD for O=C(COc1ccccc1)c1ccccc1 at or above 3?
false

Is logD for OC(c1ccccc1)c1cccnc1 (configuration not stated) at or above 3?
false

Is logD for Cc1ccc(Oc2cccc(CN3CCCC(n4cc(C)c(=O)[nH]c4=O)C3)c2)cc1 (configuration not stated) at or above 3?
true

Is logD for O=C(COCc1ccccc1)Nc1ccc2c(c1)C(=O)C(=O)c1ccccc1-2 at or above 3?
true

Is logD for CN(Cc1ccc(Cl)cc1)C(=O)C1(N)CCN(c2ncnc3[nH]ccc23)CC1 at or above 3?
false

Is logD for Nc1ccc2c(c1)C(=O)c1ccccc1-2 at or above 3?
false

Is logD for Cc1cc(Nc2nc(NCc3ccccn3)ncc2Br)n[nH]1 at or above 3?
false

Is logD for Oc1ccc(C2=Cc3ccc(O)cc3OC2)cc1 at or above 3?
true

Is logD for COc1ccc(C(=O)Nc2cccc(NC(=O)c3ccc(OC)c(OC)c3)n2)cc1OC at or above 3?
true

Is logD for Cc1ccc(NC(=O)c2cccc(N3CCOCC3)c2)cc1-n1cnc2ccc(N3CCN(C)CC3)cc2c1=O at or above 3?
false

* * *

# assay remarks: physchem
# condition details: pH 7.4 buffer
Binning of solubility thermodynamic into classes: lowest (below 9 µM), middle (9 µM to below 30 µM), highest (30 µM or more)

# example entries with known answers
[
  {
    "compound": "COc1cc(N2CCOCC2)ccc1Nc1ncc(Cl)c(-c2cnc3ccccn23)n1",
    "assigned label": "middle"
  },
  {
    "compound": "O=c1c2ccccc2oc2ccccc12",
    "assigned label": "middle"
  },
  {
    "compound": "Cc1cc(C)cc(-c2[nH]c3sc(C(C)(C)C(=O)N4C5CCC4CC5)cc3c2C(=O)CN2CCC(C(=O)N3CCOCC3)CC2)c1",
    "assigned label": "highest"
  },
  {
    "compound": "Fc1cnc(Nc2ccccc2)nc1Nc1ccccc1",
    "assigned label": "lowest"
  },
  {
    "compound": "CC(=O)N1CCN(CCOc2cc(OC(C)C)c3c(Nc4c(F)ccc5c4OCO5)ncnc3c2)CC1",
    "assigned label": "middle"
  },
  {
    "compound": "CCn1cc(NC(=O)Cc2ccc(Oc3ncnc4cc(OC)c(OC)cc34)cc2)cn1",
    "assigned label": "middle"
  }
]

Which solubility thermodynamic category applies to CN(C(=O)Cc1ccc(S(C)(=O)=O)cc1)[C@@H]1CCN(Cc2nc3cc(F)ccc3s2)C[C@@H]1F here?
lowest

Which solubility thermodynamic category applies to N#Cc1ccc2[nH]c(-c3ccc(F)cc3)c(CCCC(=O)NS(N)(=O)=O)c2c1 here?
middle

Which solubility thermodynamic category applies to COc1c(C)c2c(c(O)c1C/C=C(\C)CCC(=O)NO)C(=O)OC2 [MYCOPHENOLIC HYDROXAMIC ACID] here?
highest

Which solubility thermodynamic category applies to Cc1csc(NC(=O)c2ccccc2)n1 here?
highest

Which solubility thermodynamic category applies to Cc1cc(Nc2ccnc(NCc3cc(C4CC4)no3)n2)n[nH]1 here?
highest

Which solubility thermodynamic category applies to COc1ccnc(N(C)c2ccnc(Nc3cc(N4CCOCC4)cc(N4CCOCC4)c3)n2)c1 here?
highest

Which solubility thermodynamic category applies to NC(=O)Nc1sc(-c2ccccc2)cc1C(=O)Nc1ccccc1 here?
lowest

Which solubility thermodynamic category applies to CC(=O)[C@H]1CC[C@H]2[C@@H]3CCC4=CC(=O)CC[C@]4(C)[C@H]3CC[C@]12C here?
highest

Which solubility thermodynamic category applies to CCOc1ccc2oc(C(=O)NC(CCSC)c3nc4cnccc4[nH]3)c(C)c2c1 (stereo not given) here?
middle

Which solubility thermodynamic category applies to CCn1cc(NC(=O)Cc2ccc(Oc3ccnc4cc(F)ccc34)cc2OC)cn1 here?
lowest

Which solubility thermodynamic category applies to Cn1c(C#N)ccc1-c1ccc2c(c1)C(C)(C)OC(=S)N2 here?
lowest

Which solubility thermodynamic category applies to COc1cc(N2CCN(C(C)=O)CC2)ccc1Nc1ncc(Cl)c(-c2cnc3cc(N4CCCC4)ccn23)n1 here?
lowest
